Assign EC50 to each entry below.
Target: glucocorticoid receptor (GR) (Homo sapiens, UniProt P04150)
Sequence (P04150 521-777): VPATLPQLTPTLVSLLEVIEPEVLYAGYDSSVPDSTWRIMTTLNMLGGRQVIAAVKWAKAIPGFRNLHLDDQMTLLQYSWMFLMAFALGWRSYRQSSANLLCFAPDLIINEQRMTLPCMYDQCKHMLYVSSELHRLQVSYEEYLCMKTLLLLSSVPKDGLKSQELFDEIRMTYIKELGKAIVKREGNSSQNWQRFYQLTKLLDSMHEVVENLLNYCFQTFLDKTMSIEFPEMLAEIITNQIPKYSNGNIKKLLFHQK
Assay: Assay for agonist activity on glucocorticoid receptor (luciferase reporter, HEK293 cells transfected with pBIND-GR plasmid)
Format: cell-based
Conditions: HEK293 cells transfected with pBIND-GR, luciferase signal; read-out: GR agonist EC50
Respond numerically; units are nM and should not be typed.

Please fill in: EC50 reported for C[C@]12C=CC(=O)C=C1CC[C@H]1[C@@H]3C[C@H]4OC(C5CCC(SC6CCOC6=O)CC5)O[C@@]4(C(=O)CO)[C@@]3(C)C[C@H](O)[C@@]12F (stereo partly drawn) [Compound 45] = 1.62

Please fill in: EC50 reported for C[C@]12C=CC(=O)C=C1[C@@H](F)C[C@H]1[C@@H]3C[C@H]4OC(c5ccc(COC6COC(=O)C6)cc5)O[C@@]4(C(=O)CO)[C@@]3(C)C[C@H](O)[C@@]12F (stereo partly drawn) [Compound 10] = 2.65

Please fill in: EC50 reported for C[C@]12C=CC(=O)C=C1CC[C@@H]1[C@@H]2[C@@H](O)C[C@@]2(C)[C@H]1C[C@H]1OC(c3ccc(COC4CCOC4=O)cc3)O[C@]12C(=O)CO (stereo partly drawn) [Compound 28] = 4.24
